Data provenance is patent US8372845B2.

assay: Stability in human plasma; format: in vitro ADME; settings: pooled human plasma (lithium heparin), 1 μM compound, 37° C., 1 hour incubation
Overview of recorded log10 half-life at 1 μM for various molecules
Heads up, the numbers here are log10 of half-life at 1 μM in min units.

Name the reported log10 half-life at 1 μM value associated with the molecule Nc1nc(N)c(C(=O)/N=C2\NCC3(CCN(C(=O)CCc4ccc(OCC(=O)OCCN5CCCCC5=O)c(Cl)c4)CC3)N2)nc1Cl
0.48

* * *

Target: epithelial sodium channel (ENaC) (Homo sapiens, UniProt P37088+P51168+P51170)
Sequence (P37088 1-669): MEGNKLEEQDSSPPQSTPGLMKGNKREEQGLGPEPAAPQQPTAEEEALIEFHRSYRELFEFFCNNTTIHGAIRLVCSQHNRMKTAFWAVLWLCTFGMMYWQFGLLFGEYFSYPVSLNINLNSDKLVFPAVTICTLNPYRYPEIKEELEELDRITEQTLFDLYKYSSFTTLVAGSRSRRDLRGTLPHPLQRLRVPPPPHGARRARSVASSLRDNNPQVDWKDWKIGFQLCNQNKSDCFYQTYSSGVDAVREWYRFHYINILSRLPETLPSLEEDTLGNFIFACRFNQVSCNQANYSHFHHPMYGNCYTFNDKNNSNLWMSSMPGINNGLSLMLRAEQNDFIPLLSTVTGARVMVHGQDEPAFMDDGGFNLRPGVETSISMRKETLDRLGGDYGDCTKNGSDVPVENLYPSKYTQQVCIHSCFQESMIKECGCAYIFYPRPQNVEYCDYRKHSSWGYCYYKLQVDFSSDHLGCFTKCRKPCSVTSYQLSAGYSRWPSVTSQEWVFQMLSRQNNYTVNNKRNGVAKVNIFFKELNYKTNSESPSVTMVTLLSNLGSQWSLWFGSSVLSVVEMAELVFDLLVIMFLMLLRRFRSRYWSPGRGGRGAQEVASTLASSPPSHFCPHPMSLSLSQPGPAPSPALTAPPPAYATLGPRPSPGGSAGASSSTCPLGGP
Sequence (P51168 1-640): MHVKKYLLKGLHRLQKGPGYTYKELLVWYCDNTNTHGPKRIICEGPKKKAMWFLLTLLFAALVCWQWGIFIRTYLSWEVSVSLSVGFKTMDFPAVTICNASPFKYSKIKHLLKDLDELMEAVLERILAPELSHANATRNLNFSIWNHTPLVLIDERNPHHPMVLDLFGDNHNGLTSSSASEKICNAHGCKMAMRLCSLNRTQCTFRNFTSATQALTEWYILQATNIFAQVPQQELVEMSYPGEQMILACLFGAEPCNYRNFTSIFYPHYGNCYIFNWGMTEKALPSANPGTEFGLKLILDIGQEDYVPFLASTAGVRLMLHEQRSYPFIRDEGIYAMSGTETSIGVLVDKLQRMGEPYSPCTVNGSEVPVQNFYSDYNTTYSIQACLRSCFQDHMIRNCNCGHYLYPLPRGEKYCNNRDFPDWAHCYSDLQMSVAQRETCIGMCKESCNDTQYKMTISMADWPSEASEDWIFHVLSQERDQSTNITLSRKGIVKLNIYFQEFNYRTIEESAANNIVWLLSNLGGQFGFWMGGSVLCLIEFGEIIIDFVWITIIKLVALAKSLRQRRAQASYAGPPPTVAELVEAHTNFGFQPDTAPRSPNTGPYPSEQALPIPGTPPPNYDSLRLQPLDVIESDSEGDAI
Sequence (P51170 1-649): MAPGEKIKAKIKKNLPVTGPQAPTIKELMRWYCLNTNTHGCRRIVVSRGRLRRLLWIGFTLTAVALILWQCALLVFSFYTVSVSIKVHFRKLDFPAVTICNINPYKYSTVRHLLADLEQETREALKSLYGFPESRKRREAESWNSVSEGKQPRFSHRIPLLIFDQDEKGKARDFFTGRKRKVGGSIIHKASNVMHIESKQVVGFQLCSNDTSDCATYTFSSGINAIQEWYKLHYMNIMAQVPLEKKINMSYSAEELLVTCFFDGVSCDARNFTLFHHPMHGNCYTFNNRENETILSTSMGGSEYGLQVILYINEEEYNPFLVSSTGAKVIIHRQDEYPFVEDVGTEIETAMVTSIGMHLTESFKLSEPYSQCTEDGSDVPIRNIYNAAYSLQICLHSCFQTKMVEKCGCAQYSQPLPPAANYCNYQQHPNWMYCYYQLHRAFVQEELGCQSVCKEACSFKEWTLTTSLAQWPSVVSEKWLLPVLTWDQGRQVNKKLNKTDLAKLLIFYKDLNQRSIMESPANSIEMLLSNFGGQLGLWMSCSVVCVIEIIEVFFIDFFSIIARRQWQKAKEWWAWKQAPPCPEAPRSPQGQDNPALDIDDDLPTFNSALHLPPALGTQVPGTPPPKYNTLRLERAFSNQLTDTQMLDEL
Test: Short circuit current (ISC) measurements in Human Bronchial Epithelial cells (HBEC-ENaC)
Settings: inhibition of amiloride-sensitive ISC, HBECs at air-liquid interface, Ussing chamber, apical addition
READOUT NAME: pIC50
# log scale: pIC50 equals minus log10 of the concentration in mol/L

Some compounds with recorded pIC50:
> print(dat)
                               smiles.entry  readout.name  reported.value
1  CN(C)C(=O)COC(=O)COc1ccc(CCC(=O)N2CCC3(CC2)CN/C(=N\C(=O)c2nc(Cl)c(N)nc2N)N3)cc1         pIC50            6.52
2  CCCN(CCC)C(=O)COC(=O)C1(CNS(=O)(=O)c2cccc(C(=O)N3CCC4(CC3)CN/C(=N\C(=O)c3nc(Cl)c(N)nc3N)N4)c2)CCC1         pIC50            7.92

Query compound follows.
Name the reported pIC50 value associated with the compound CC(C)(C)OC(=O)COC(=O)COc1ccc(CCC(=O)N2CCC3(CC2)CN/C(=N\C(=O)c2nc(Cl)c(N)nc2N)N3)cc1
7.52
